Values were extracted from patent US9896441B2.

The entries below come with measured pEC50 values attached.
- study_system: Gal4-RORγ-LBD (Homo sapiens)
- Construct: expressed in transfected cells
- Sequence (P51449 269-508 limits assumed): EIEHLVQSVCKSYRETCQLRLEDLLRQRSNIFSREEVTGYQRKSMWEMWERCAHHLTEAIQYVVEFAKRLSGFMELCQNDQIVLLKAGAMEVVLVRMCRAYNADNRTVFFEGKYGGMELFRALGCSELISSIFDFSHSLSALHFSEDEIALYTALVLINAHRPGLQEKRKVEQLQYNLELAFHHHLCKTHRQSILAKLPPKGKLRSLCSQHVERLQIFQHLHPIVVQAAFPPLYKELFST
- test_details: Gal4-RORγ Luciferase Reporter Assay in HEK-293T Cells
- Type: cell-based
- measurement_conditions: HEK-293 cells, luciferase reporter, in presence of ursolic acid
pEC50: −log10 of the molar value.

Guide cases for pEC50, answers given:
* CCn1cc(S(=O)(=O)N2C[C@H](CNC(C)=O)Oc3ccc(/C=C/c4ncccc4Cl)cc32)c(Cl)n1 [Example 109E] | 5.30 to 6.30
* COc1cc(S(=O)(=O)N2C[C@H](CNC(=O)c3ccc(C(=O)O)cc3)Oc3ccc(/C=C(\C)c4c(F)cccc4Cl)cc32)ccc1F | > 6.30

Let us examine a further case.
Q: Give me measured pEC50, please, for this molecule: `C/C(=C\c1ccc2c(c1)N(S(=O)(=O)c1cccc(C(F)(F)F)c1)C[C@H](CCCN1CCCC1)O2)c1c(F)cccc1Cl`
Result: 5.30 to 6.30

---

- study_system: Gal4-RORγ-LBD (Homo sapiens, UniProt P51449)
- Construct: expressed in transfected cells
- Sequence (P51449 269-508 limits assumed): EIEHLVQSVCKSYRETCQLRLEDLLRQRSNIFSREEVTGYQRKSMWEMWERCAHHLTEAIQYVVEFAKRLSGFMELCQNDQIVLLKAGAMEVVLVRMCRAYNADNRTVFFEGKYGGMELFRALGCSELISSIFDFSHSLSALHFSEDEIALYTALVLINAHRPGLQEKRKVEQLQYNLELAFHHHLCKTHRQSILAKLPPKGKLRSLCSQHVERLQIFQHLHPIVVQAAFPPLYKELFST
- test_details: Gal4-RORγ Luciferase Reporter Assay in HEK-293T Cells
- Type: cell-based
- measurement_conditions: HEK-293 cells, luciferase reporter, with ursolic acid
pEC50: −log10 of the molar value.
// reported pEC50 per item

Here's what some known entries look like.
* CCOc1nn(CC)cc1S(=O)(=O)N1C[C@H](CCC(=O)OC)Oc2ccc(/C=C/c3c(Cl)cccc3C(F)(F)F)cc21 [Example 89DP] | > 6.30
* CCOc1ncc(C(F)(F)F)cc1S(=O)(=O)N1C[C@H](CCC(=O)OC)Oc2ccc(/C=C/c3c(Cl)cccc3C(F)(F)F)cc21 [Example 89DN] | 5.30 to 6.30
* O=C(O)CC[C@H]1CN(S(=O)(=O)c2cccc(C(F)(F)F)c2)c2cc(/C=C/c3cccnc3Cl)ccc2O1 [Example 89CD] | 5.30 to 6.30
* CC1(C)CCC(=Cc2ccc3c(c2)N(S(=O)(=O)c2cccc(C(F)(F)F)c2)C[C@H](CCC(=O)O)O3)CC1 [Example 95H] | 5.30 to 6.30
* C/C(=C\c1ccc2c(c1)N(S(=O)(=O)c1cccc(C(F)(F)F)c1)C[C@H](CCC(=O)O)O2)c1c(Cl)cccc1Cl [Example 86AE] | > 6.30
* COC(=O)CC[C@H]1CN(S(=O)(=O)c2cccc(OC(F)F)c2)c2cc(/C=C/c3ccccn3)ccc2O1 [Example 89D] | 5.30 to 6.30

Q: Output pEC50 of CCOc1nn(CC)cc1S(=O)(=O)N1C[C@H](CCC(=O)O)Oc2ccc(/C=C/c3ncccc3Cl)cc21 [Example 89EE]
Result: 5.30 to 6.30

Q: Kindly indicate its recorded pEC50. Item: O=C(O)CC[C@H]1CN(S(=O)(=O)c2cccc(C(F)(F)F)c2)c2cc(/C=C/c3ncccc3Cl)ccc2O1 [Example 89BK]
Result: > 6.30

Q: Let me know recorded pEC50 for COC(=O)CC[C@H]1CN(S(=O)(=O)c2cccc(OC(F)F)c2)c2cc(/C=C/c3ccccc3OC)ccc2O1 [Example 89AZ] , thanks.
Result: > 6.30

Q: Fill in pEC50 for record `COC(=O)CC[C@H]1CN(S(=O)(=O)c2cccc(C(F)(F)F)c2)c2c(ccc(/C=C(\C)c3c(F)cccc3Cl)c2C)O1`
Result: < 5.00

---

compounds and their reported EC50
- study_system: Gal4-RORγ-LBD (Homo sapiens, UniProt P51449)
- Construct: expressed in transfected cells
- test_details: Gal4-RORγ Luciferase Reporter Assay in HEK-293T Cells
- Format: cell-based
- measurement_conditions: HEK-293 cells, luciferase reporter, with ursolic acid

# annotated cases, reported EC50 shown
• N#Cc1cccc(/C=C/c2ccc3c(c2)N(S(=O)(=O)c2cccc(C(F)(F)F)c2)C[C@H](CCC(=O)O)O3)c1F [Example 89BW] = > 10000 nM
• O=C(O)CC[C@H]1CN(S(=O)(=O)c2cc(C(F)(F)F)cnc2OCCO)c2cc(/C=C/c3c(F)cccc3Cl)ccc2O1 [Example 89EC] = 500 to 5000 nM

Q: GET EC50 where system = Gal4-RORγ-LBD (Homo sapiens, UniProt P51449) and item = `CCOc1sc(CC)nc1S(=O)(=O)N1C[C@H](CCC(=O)OC)Oc2ccc(/C=C(\C)c3c(F)cccc3Cl)cc21`
Result: < 500 nM

Q: Report EC50 on Gal4-RORγ-LBD (Homo sapiens, UniProt P51449) for this entry: O=C(O)CC[C@H]1CN(S(=O)(=O)c2cccc(C(F)(F)F)c2)c2cc(/C=C/c3ccc(Cl)cc3F)ccc2O1 [Example 89BH]
Result: > 10000 nM

Q: Give the observed EC50 of O=C(O)CC[C@H]1CN(S(=O)(=O)c2cn(CC(F)F)nc2OCCO)c2cc(/C=C/c3c(Cl)cccc3C(F)(F)F)ccc2O1 [Example 89EF] for Gal4-RORγ-LBD (Homo sapiens, UniProt P51449).
Result: < 500 nM

---

- study_system: Gal4-RORγ-LBD (Homo sapiens)
- Construct: expressed in transfected cells
- test_details: Gal4-RORγ Luciferase Reporter Assay in HEK-293T Cells
- Assay type: cell-based
- measurement_conditions: HEK-293 cells, ursolic acid present, luciferase readout
pEC50: −log10 of the molar value.
observed_property: pEC50

Q: For the molecule O=C(O)CC[C@H]1CN(S(=O)(=O)c2cc(C3CC3)cnc2OCCO)c2cc(/C=C/c3c(F)cccc3Cl)ccc2O1 [Example 89FO] , report pEC50.
Result: > 6.30

---

- study_system: Gal4-RORγ-LBD (Homo sapiens, UniProt P51449)
- Construct: expressed in transfected cells
- test_details: Gal4-RORγ Luciferase Reporter Assay in HEK-293T Cells
- Format: cell-based
- measurement_conditions: HEK-293 cells, luciferase reporter, in presence of ursolic acid
observed_property: EC50

• COc1cc(S(=O)(=O)N2c3cc(/C=C/c4c(F)cccc4Cl)ccc3O[C@@H](CO)[C@H]2C)ccc1F [Example 136] = < 500 nM

Q: Output measured EC50 for this item: C/C(=C\c1ccc2c(c1)N(S(=O)(=O)c1cccc(C(F)(F)F)c1)C[C@H](CCO)O2)c1c(F)cccc1Cl [Example 106]
Result: < 500 nM

Q: Indicate the recorded EC50 value for this compound: C/C(=C\c1ccc2c(c1)N(S(=O)(=O)c1cccc(C(F)(F)F)c1)C[C@H](CCN1CCC(O)C1)O2)c1c(F)cccc1Cl (stereo partly shown) [Example 119C]
Result: 500 to 5000 nM

Q: Give the measured EC50 for COC(=O)c1ccc(C(=O)NC[C@H]2CN(S(=O)(=O)c3ccc(F)c(OC)c3)c3cc(/C=C(\C)c4c(F)cccc4Cl)ccc3O2)cc1 [Example 133]
Result: < 500 nM

---

Some molecules, each annotated with its measured EC50.
- study_system: Gal4-RORγ-LBD (Homo sapiens, UniProt P51449)
- Construct: expressed in transfected cells
- Sequence (P51449 269-508 limits assumed): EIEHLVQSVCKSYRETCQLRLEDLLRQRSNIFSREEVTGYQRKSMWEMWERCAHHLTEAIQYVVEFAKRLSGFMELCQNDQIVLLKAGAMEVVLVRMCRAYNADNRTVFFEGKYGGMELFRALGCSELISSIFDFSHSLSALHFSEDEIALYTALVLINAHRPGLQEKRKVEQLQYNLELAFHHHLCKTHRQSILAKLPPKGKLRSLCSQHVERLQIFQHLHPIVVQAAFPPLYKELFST
- test_details: Gal4-RORγ Luciferase Reporter Assay in HEK-293T Cells
- Type: cell-based
- measurement_conditions: HEK-293 cells, luciferase reporter, in presence of ursolic acid

In the examples that follow, each entry is paired with its recorded EC50.
* COc1cc(S(=O)(=O)N2c3cc(/C=C(\C)c4c(F)cccc4Cl)ccc3C[C@H](O)[C@H]2C)ccc1F (racemic) [Example 175] | 500 to 5000 nM
* COc1cc(S(=O)(=O)N2C[C@H](CCNC(=O)C(=O)O)Oc3ccc(/C=C(\C)c4c(F)cccc4Cl)cc32)ccc1F [Example 116K] | 500 to 5000 nM
* C/C(=C\c1ccc2c(c1)N(S(=O)(=O)c1cccc(C(F)(F)F)c1)C[C@H](CCC(=O)N1CC(C#N)C1)O2)c1c(F)cccc1Cl [Example 127M] | < 500 nM

Q: For Gal4-RORγ-LBD (Homo sapiens, UniProt P51449), give the measured EC50 of the entry COc1cc(S(=O)(=O)N2C[C@H](CCNC(C)=O)Oc3ccc(/C=C(\C)c4c(F)cccc4Cl)cc32)ccc1F [Example 116B]
Result: < 500 nM

Q: State recorded EC50 with Gal4-RORγ-LBD (Homo sapiens, UniProt P51449), entry CCOc1ncc(C(F)(F)F)cc1S(=O)(=O)N1C[C@H](CNC(=O)CCC(=O)O)Oc2ccc(/C=C/c3c(F)cccc3Cl)cc21 [Example 109F] , no comment.
Result: 500 to 5000 nM

Q: Determine reported EC50 for C/C(=C\c1ccc2c(c1)N(S(=O)(=O)c1cccc(C(F)(F)F)c1)C[C@@H](N)C2)c1c(F)cccc1Cl [Example 166] ; test system: Gal4-RORγ-LBD (Homo sapiens, UniProt P51449).
Result: 500 to 5000 nM

Q: Report its EC50 with Gal4-RORγ-LBD (Homo sapiens, UniProt P51449) as the test system: C/C(=C\c1ccc2c(c1)N(S(=O)(=O)c1cccc(C(F)(F)F)c1)C[C@H](CCN1CCC[C@H]1C(=O)O)O2)c1c(F)cccc1Cl [Example 124]
Result: 500 to 5000 nM
